Each recorded value in this set is attributed to the supplement of paper PMC10065799.

- Test system: c-Src
- PROTOCOL: phosphorylation enrichment, bacterial display (enrichment ratio); higher = better substrate or ligand; peptides without Tyr show the background
Label scheme for phosphorylation enrichment: lower than 0.5 is not met, 0.5 and above is met.

Does phosphorylation enrichment meet or surpass 0.5 for GHGRFYMKEAI [PGM1_Y66_D62H] ? not met

Another sequence: GDYLSYREFHS [ERBIN_Y1107] met

Another sequence: RSFPSYYTSHV [NEFL_Y442] met

Another sequence: SFVMVYEGNAR [INSR_Y1038_G1035V] met

----------
- ASSAY TARGET: Fyn (UniProt P06241)
- Sequence (P06241 whole entry, looked up): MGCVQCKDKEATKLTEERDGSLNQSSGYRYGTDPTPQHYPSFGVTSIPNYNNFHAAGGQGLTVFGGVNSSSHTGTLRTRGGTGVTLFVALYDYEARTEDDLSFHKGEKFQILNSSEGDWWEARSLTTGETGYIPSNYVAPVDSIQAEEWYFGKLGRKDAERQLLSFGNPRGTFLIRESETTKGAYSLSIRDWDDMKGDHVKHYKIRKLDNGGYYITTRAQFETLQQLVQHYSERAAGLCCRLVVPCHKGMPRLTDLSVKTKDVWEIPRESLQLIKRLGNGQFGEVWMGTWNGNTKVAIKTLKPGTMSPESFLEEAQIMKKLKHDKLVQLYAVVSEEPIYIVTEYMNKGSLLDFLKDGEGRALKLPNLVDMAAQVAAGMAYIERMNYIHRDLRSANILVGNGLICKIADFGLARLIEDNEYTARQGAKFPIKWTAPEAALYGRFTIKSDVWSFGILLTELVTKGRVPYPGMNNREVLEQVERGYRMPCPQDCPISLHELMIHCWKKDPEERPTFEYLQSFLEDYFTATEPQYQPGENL
- PROTOCOL: phosphorylation enrichment, bacterial display (enrichment ratio); higher = better substrate or ligand; peptides without Tyr show the background
Label scheme for phosphorylation enrichment: lower than 0.5 is False, 0.5 and above is True.

Does phosphorylation enrichment meet or surpass 0.5 for DEDFLCREELA [POR_Y575_Y575C_YF] ? True

Another sequence: SQQTYCRVSNM [ABCD1_Y181_Y181C] True

Another sequence: HEKKAYAFCGT [RPS6KA3_Y226_S227A] True

Another sequence: CRERPYGGGGG [FUS_Y526_R521C] False

Another sequence: SVTCTYSPALY [TP53_Y126_N131Y] True

Another sequence: VCRHNYGVVES [HLA-DRB1_Y112_Y107V] False

Another sequence: IATAIYSGDKI [UGGT2_Y823] True

Another sequence: KFVVVYFRETD [IL17RB_Y447_I451T_YF] False

Another sequence: HPWPRYTTRAP [FNDC1_Y1281_Q1280R] True

Another sequence: FVHDNYVIRRT [CPS1_Y1450] False

Another sequence: QLCVSYPGGYT [PROS1_Y259_N258S] True

Another sequence: SVTFTYSPALN [TP53_Y126_C124Y_YF] False

Another sequence: HRGCLYLAIEY [TEK_Y899_Y897C] True

Another sequence: NTYEKYWLFYQ [GATM_Y103_P105L] True

Another sequence: DPNQQYYIAMD [TBX15_Y159_H156N] True

Another sequence: RTCSSYTIEKI [PARP15_Y520_A521T] True

Another sequence: LEITWYPFDME [RIPOR2_Y316_V320M] True

Another sequence: PIPAAYNKFDQ [CDC73_Y290_R292K_YF] True

Another sequence: VNYGAYINDFN [GLB1_Y488_K493N] True

Another sequence: LEPHIYAVADV [MYO9A_Y216] True

Another sequence: NIKKEYAKMVQ [PMS2_Y181] False

Another sequence: RPASQYPHQVP [ADAM12_Y895_P893S] True

Another sequence: KLKRSYSSRDI [USP8_Y717_P720R] False

Another sequence: REGKIYEFNQV [ZNF665_Y162_H157R_YF] True

Another sequence: FLRTGYSIPFG [TGM1_Y370_V372I_YF] False

Another sequence: FEREQYADRTR [RBM4_Y355_A359T_YF] False

----------
- ASSAY TARGET: c-Src SH2;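 further: peptide library displayed on the E. coli surface as eCPX fusions, selected cells deep-sequenced, score is each peptide's frequency after selection divided by its frequency in the input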
- PROTOCOL: SH2 binding enrichment of the phosphorylated peptide, bacterial display (enrichment ratio); higher = better substrate or ligand; peptides without Tyr show the background
Label scheme for SH2 binding enrichment: lower than 0.8 is class 0, 0.8 and above is class 1.

Does SH2 binding enrichment meet or surpass 0.8 for HLTNQFMQRVA [PABPC4_Y382_Y382F] ? class 0

Another sequence: NIKKEYAKMVQ [PMS2_Y181] class 0

Another sequence: FRPPYYHRDCM [HGD_Y334_N337D] class 1

Another sequence: IMVFVYCRVFQ [ADRB2_Y219_S220C] class 0

Another sequence: KDFNKYVAYIE [KDM4B_Y31] class 1

Another sequence: VLRQVYVDFEG [KMT2B_Y1707_R1705Q] class 1

Another sequence: KERNQYGGVMV [MMP21_Y347_E349G] class 0

Another sequence: VEYAKYGSLRG [RET_Y809] class 0

Another sequence: LLIMEYAKFGS [RET_Y806_V804M_YF] class 1

Another sequence: ILGLEYSLRLP [HELZ2_Y1304_V1308L] class 0

Another sequence: TLQTMYGCDVG [HLA-B_Y123_S121T] class 0

Another sequence: KFVVVYFRETD [IL17RB_Y447_I451T_YF] class 1

Another sequence: TLPAFYMGNFS [GLB1_Y552] class 0

Another sequence: LKVKAYRFSIS [LCT_Y974] class 0

Another sequence: KYRREYILSLE [GPC3_Y299_W296R] class 0

Another sequence: HSDFQYSQRSQ [PKP2_Y168_YF] class 0

Another sequence: VPVPGYTKLPE [SPRR3_Y146] class 0

Another sequence: RFLRGYRQHAF [HLA-A_Y137_D140H_YF] class 0

Another sequence: RFLRGYQQDAY [HLA-A_Y137_R138Q] class 0

Another sequence: CTTIHYNYMCK [TP53_Y234_N239K] class 1

Another sequence: FRARAYSFRGP [CHGA_Y381_G382S] class 0
